molecular target: Protein smoothened (Homo sapiens, UniProt Q99835); experiment: Displacement of [125I]-PA cyclopamine from smoothened expressed in african green monkey COS-1 cells after 10 mins by autoradiography
Sequence (Q99835 whole entry): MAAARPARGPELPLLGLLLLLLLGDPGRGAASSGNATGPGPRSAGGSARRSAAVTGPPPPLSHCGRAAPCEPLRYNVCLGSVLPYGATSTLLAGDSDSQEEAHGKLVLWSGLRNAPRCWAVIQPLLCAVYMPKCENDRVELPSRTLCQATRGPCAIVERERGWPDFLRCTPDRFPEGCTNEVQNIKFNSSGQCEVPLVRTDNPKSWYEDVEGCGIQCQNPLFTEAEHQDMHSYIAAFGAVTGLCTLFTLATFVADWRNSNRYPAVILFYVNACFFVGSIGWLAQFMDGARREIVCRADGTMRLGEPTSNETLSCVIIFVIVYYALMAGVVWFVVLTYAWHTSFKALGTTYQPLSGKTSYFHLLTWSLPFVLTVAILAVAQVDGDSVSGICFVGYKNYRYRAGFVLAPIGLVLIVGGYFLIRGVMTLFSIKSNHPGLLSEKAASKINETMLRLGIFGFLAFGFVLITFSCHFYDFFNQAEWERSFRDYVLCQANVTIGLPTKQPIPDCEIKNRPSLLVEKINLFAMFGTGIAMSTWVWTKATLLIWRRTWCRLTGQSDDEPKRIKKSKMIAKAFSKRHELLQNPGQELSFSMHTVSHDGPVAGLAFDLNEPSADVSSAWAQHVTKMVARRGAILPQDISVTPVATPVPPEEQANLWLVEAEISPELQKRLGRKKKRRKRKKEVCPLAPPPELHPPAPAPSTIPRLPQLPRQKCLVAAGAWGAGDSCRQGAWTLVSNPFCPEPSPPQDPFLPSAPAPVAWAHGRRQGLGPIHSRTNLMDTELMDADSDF
pIC50: −log10 of the molar value.
Consider the following compounds; for each one, report its pIC50.

Completed entries (count: 2):
{"columns": ["compound", "pIC50"],
 "data": [
  ["O=C1C2CN(CC3CCCCC3)CCN2C(=O)N1[C@H]1C[C@@H]1c1ccccc1 (mixture of isomers)", "< 5.60"],
  ["O=C(Nc1ccccc1-c1ccccc1)N1CCN2C(=O)N(Cc3ccccc3)C(=O)C2C1 (racemic)", "< 5.60"]
]}

Please turn your attention to the following entry.
input: What pIC50 value was documented for this compound, CC(=O)N1CCN2C(=O)N([C@H]3C[C@@H]3c3ccccc3)C(=O)C2C1 (mixture of isomers) ?
output: < 5.82
